# Test system: KM12
# TEST_SUMMARY: NCI tumour cell line growth inhibition, 48 h
Activity calls are given as the source filed them. Cut-off read from the data, not from the text of the source: active = GI50 up to about 1.1 µM and inactive = higher.
TEST_READOUT: GI50

Example entries and their recorded answers appear below.
1) CCOC(=O)/C=C/[C@H](O[Si](c1ccccc1)(c1ccccc1)c1ccccc1)C(C)(C)C 15.8 µM (inactive)
2) O=C1c2ccccc2C(=O)c2oc(Br)cc21 1.23 µM (inactive)
3) CN(C)c1ccc(/C=C(/C(=O)O)c2csc(-c3nc(/C(=C\c4ccc(N(C)C)cc4)C(=O)O)cs3)n2)cc1 > 100 µM (inactive)

Query compound follows.
Q) Name the recorded GI50 for "Cc1nc2cccc(F)c2c(=O)n1-c1nnc(C2CC2)s1" .
A) > 10 µM (inactive)

###

# Tested on: SF-295
# TEST_SUMMARY: NCI tumour cell line growth inhibition, 48 h
Active and inactive are the calls of the source. No stated cut-off is given here; in the data, active = GI50 up to about 1.1 µM and inactive = higher.
Can you answer with just one of these options? Yes = active, No = inactive

COMPOUND	SYSTEM	ANSWER_LABEL
O=C1CCN/C(=N\C(=O)C(F)(F)F)N1CCc1c[nH]c2ccccc12	SF-295	No

Q) Test call, this compound: "Oc1cc(-c2ccc(F)cc2)nc2ncc(Cl)cc12"
A) No

Q) Test call, this compound: "CC(C)(C)c1ccc(-c2nnc(-c3cc(C#N)cc(-c4nnc(-c5ccc(C(C)(C)C)cc5)o4)c3)o2)cc1"
A) No

Q) Test call, this compound: "N#C/C(=C\c1cc(OCc2ccccc2)c(OCc2ccccc2)cn1)C(N)=O"
A) No

Q) Test call, this compound: O=C1CCCCCCC2=C1C(Sc1ccccc1)CC2 (stereo not given)
A) No

Q) Test call, this compound: "O=C(/C=C/c1cccc2ccccc12)c1ccccc1"
A) No

Q) Test call, this compound: "Cc1cccc2c(N)c3cccc(C(=O)NCCN4CCOCC4)c3nc12"
A) Yes

Q) Test call, this compound: CN1CC[C@]23c4c5ccc(O)c4O[C@H]2C(O)CC[C@@]3(O)[C@H]1C5 (stereo not given in full)
A) No

Q) Test call, this compound: "Cn1c(=O)c2c(nc3n2CCC(=O)N3)n(C)c1=O"
A) No

Q) Test call, this compound: "Fc1ccc(NCn2nc(COc3ccccc3Cl)n(/N=C/c3ccc(-c4ccc(Cl)cc4Cl)o3)c2=S)cc1Cl"
A) No

###

# Tested on: ACHN
# TEST_SUMMARY: NCI tumour cell line growth inhibition, 48 h
Activity calls are given as the source filed them. Rule as the data show it: active = GI50 up to about 1.1 µM and inactive = higher.
Can you answer with just one of these options? true (active), false (inactive)

Q) Test call, this compound: O=c1n(-c2ccccc2)c(=O)n2n1C1C=CC2C2C(C1)C2(Cl)Cl (stereo unspecified)
A) false

Q) Test call, this compound: "O=C(NCCCC/N=c1/cccccc1NCCCCNC(=O)OCc1ccccc1)OCc1ccccc1"
A) false

Q) Test call, this compound: "CC(C)[Si](OC/C(=C/COC(C)(C)C)[C@H]1CC=C(C(=O)c2ccccc2N2CN(C)C(=O)N(C)C2)C1)(C(C)C)C(C)C"
A) false

###

Quick reference: GI50 of the listed items.
# Tested on: KM12
# TEST_SUMMARY: NCI tumour cell line growth inhibition, 48 h
Activity calls are given as the source filed them. Rule as the data show it: active = GI50 up to about 1.1 µM and inactive = higher.

MOLECULE	SYSTEM	GI50
C/C(=N\NC1=NCCN1)c1cn(C2=NCCN2)nc1C	KM12	> 100 µM (inactive)
COc1ccc2ccc3c(c2c1)CN1CCc2cc(OC)c(OC)cc2C1C3 (stereo not given)	KM12	> 100 µM (inactive)

Q) Name the recorded GI50 for "CC1=Nn2c(nnc2-c2ccc(Cl)cc2)NC(C)(C)C1" .
A) > 100 µM (inactive)

Q) Name the recorded GI50 for "c1csc(-c2cc(-c3ccsc3)c(-c3cccs3)s2)c1" .
A) 31.8 µM (inactive)

Q) Name the recorded GI50 for "O=C1c2ccccc2C(=O)N1CC#CCO" .
A) > 100 µM (inactive)

Q) Name the recorded GI50 for N#Cc1cccc(N2C(=O)C3C4C=CC(C3C2=O)C2C(=O)N(c3cccc(C#N)c3)C(=O)C42)c1 (stereo not given) .
A) > 56.2 µM (inactive)

Q) Name the recorded GI50 for C/C=C\C1OC1(C)c1cc(=O)c2c(C)cc3c(c2o1)C(=O)c1c(O)c(C2CC(C)(N(C)C)C(OC(C)=O)C(C)O2)cc(C2CC(N(C)C)C(O)C(C)O2)c1C3=O (stereo not given) .
A) 0.0042 µM (active)

###

Quick reference: GI50 of the listed items.
# Tested on: SNB-19
# TEST_SUMMARY: NCI tumour cell line growth inhibition, 48 h
Active and inactive are the calls of the source. Cut-off read from the data, not from the text of the source: active = GI50 up to about 1.1 µM and inactive = higher.

MOLECULE	GI50
C/C1=C\[C@@H](O)C(=O)/C=C/C=C\c2csc(n2)[C@@H](C)NC(=O)C[C@@]2(CC1)[S+]([O-])SC(=O)[C@]2(C)O (some centres undefined)	0.284 µM (active)
CC1=C(C(=O)Nc2ccccc2)C(c2ccccc2)C(C(=O)Nc2ccccc2)=C(C)N1	94.4 µM (inactive)
COc1cc([N+](=O)[O-])c(S(=O)(=O)[O-])cc1-[n+]1nc(C(=O)Nc2ccccc2)nn1-c1ccc([N+](=O)[O-])c(S(=O)(=O)O)c1	> 100 µM (inactive)

Q) Can you look up GI50 on SNB-19 for "COc1cc(OC)c(Oc2cccc(OC)c2OC)c(OC)c1" ?
A) 32.1 µM (inactive)

###

# Tested on: OVCAR-8
# TEST_SUMMARY: NCI tumour cell line growth inhibition, 48 h
Active and inactive are the calls of the source. No stated cut-off is given here; in the data, active = GI50 up to about 1.1 µM and inactive = higher. Where a SMILES comes first, the peptide text is derived from it. [ ]: non-standard residue; d: D form. The star is where a group is joined. ξ: configuration not given here. Propanoyl(3-(4-MeO-Ph)) = COc1ccc(CCC(=O)*)cc1; Thr(3ξ) = CC(O)[C@H](N)C(=O)O; dNMeL = CN[C@H](CC(C)C)C(=O)O; OBn = c1ccc(CO*)cc1; ξLac = CC(O)C(=O)O
Can you answer with just one of these options? true (1) = active, false (0) = inactive

Some solved cases for reference:
COMPOUND	ANSWER_LABEL
C[s+]1c2ccccc2c2ccccc21	false (0)
COc1ccc(/C=C/C(=O)c2cccc(C(=O)/C=C/c3ccc(OC)c(OC)c3)n2)cc1OC	false (0)
OCC1OC2c3ccccc3COC2C1OCc1ccccc1 (stereo not drawn)	false (0)

Q) Test call, this compound: CCCCCC(/C=N/N)C(O)(C(F)(F)F)C(F)(F)F (stereo not drawn)
A) false (0)

Q) Test call, this compound: "CC(=O)Nc1ccccc1S(=O)(=O)c1ccccc1"
A) false (0)

Q) Test call, this compound: COc1ccc(CCC(=O)OC(C)[C@H](NC(=O)[C@@H](CC(C)C)N(C)C(=O)[C@@H]2CCCN2C(=O)C(C)O)C(=O)OCc2ccccc2)cc1 (stereo partly drawn) (H-[ξLac]P[dNMeL][Thr(3ξ)](Propanoyl(3-(4-MeO-Ph)))-OBn)
A) false (0)

Q) Test call, this compound: CC(O[Si](c1ccccc1)(c1ccccc1)C(C)(C)C)[C@H](NC(=O)OC(C)(C)C)C(=O)O (stereo partly drawn)
A) false (0)

Q) Test call, this compound: CN1C(=O)C2(Cc3cn(C45CC67SSC(CO)(C(=O)N6C4Nc4ccccc45)N(C)C7=O)c4ccccc34)SSC1(CO)C(=O)N2C (stereo not drawn)
A) true (1)

###

# Tested on: MDA-MB-435
# TEST_SUMMARY: NCI tumour cell line growth inhibition, 48 h
Active and inactive are the calls of the source. Cut-off read from the data, not from the text of the source: active = GI50 up to about 1.1 µM and inactive = higher.
Quick reference: GI50 of the listed items.

Example entries and their recorded answers appear below.
COMPOUND	GI50
C=C(C)C(=O)/N=C(\N)NC#N	131 µM (inactive)
COc1ccc(Cn2nc(OCc3ccccc3)c3cc([N+](=O)[O-])ccc32)cc1	> 100 µM (inactive)
Nc1ccc2c(SCc3ccc([N+](=O)[O-])cc3)c3ccccc3nc2c1	14.5 µM (inactive)
OCC1OC(Oc2cc(O)cc(/C=C\c3ccc(O)cc3)c2)C(O)C(O)C1O (stereo unspecified)	> 100 µM (inactive)
O=C(NC(C(F)(F)F)(C(F)(F)F)P(=O)(Cc1ccccc1)Cc1ccccc1)C(C(F)(F)F)C(F)(F)F	17.4 µM (inactive)

Query compound follows.
Q) Name the recorded GI50 for "Nn1c(S)nnc1C12CC3CC(CC(C3)C1)C2" .
A) > 100 µM (inactive)

###

Quick reference: GI50 of the listed items.
# Test system: MOLT-4
# TEST_SUMMARY: NCI tumour cell line growth inhibition, 48 h
Calls of active or inactive are those of the source. Cut-off read from the data, not from the text of the source: active = GI50 up to about 1.1 µM and inactive = higher.

COMPOUND	RESULT
CN(C)CC1COC2Cc3ccccc3C1O2 (configuration not stated)	> 100 µM (inactive)
COC(=O)/C(C#N)=C1\NC(=O)c2ccccc21	> 100 µM (inactive)
C/C(=C\C(C[C@](C)(O)C(O)CCC#C[Si](C)(C)C)S(=O)(=O)c1ccccc1)CC/C=C/CO[Si](C)(C)C(C)(C)C (some centres not stated)	6.95 µM (inactive)
O=C(Nc1ccccc1)N1CCN(C(=O)Nc2ccccc2)C1=S	> 100 µM (inactive)
CCN(CC)CC1CCCCN1CC(=O)N1c2cc(Cl)ccc2NC(=O)CC1C (configuration not stated)	> 100 µM (inactive)

Q) Name the recorded GI50 for "Cn1c2ccc3cc2c(=S)c2cc(ccc21)OCCOCCOCCOCCOCCO3" .
A) > 10 µM (inactive)

Q) Name the recorded GI50 for "COc1cc(CNc2cnc3ccc(N)cc3n2)cc(OC)c1OC" .
A) > 100 µM (inactive)

Q) Name the recorded GI50 for "O=C(CCN1CCCCC1)C(=Cc1ccccc1)C(=O)CCN1CCCCC1" .
A) 18.6 µM (inactive)
